Data provenance is paper PMC6155426.

Target: lipoxygenase from soybean (Glycine max, UniProt P08170)
Construct: purchased Sigma-Aldrich; host or cells: soybean (plant-derived preparation)
Sequence (P08170 whole entry): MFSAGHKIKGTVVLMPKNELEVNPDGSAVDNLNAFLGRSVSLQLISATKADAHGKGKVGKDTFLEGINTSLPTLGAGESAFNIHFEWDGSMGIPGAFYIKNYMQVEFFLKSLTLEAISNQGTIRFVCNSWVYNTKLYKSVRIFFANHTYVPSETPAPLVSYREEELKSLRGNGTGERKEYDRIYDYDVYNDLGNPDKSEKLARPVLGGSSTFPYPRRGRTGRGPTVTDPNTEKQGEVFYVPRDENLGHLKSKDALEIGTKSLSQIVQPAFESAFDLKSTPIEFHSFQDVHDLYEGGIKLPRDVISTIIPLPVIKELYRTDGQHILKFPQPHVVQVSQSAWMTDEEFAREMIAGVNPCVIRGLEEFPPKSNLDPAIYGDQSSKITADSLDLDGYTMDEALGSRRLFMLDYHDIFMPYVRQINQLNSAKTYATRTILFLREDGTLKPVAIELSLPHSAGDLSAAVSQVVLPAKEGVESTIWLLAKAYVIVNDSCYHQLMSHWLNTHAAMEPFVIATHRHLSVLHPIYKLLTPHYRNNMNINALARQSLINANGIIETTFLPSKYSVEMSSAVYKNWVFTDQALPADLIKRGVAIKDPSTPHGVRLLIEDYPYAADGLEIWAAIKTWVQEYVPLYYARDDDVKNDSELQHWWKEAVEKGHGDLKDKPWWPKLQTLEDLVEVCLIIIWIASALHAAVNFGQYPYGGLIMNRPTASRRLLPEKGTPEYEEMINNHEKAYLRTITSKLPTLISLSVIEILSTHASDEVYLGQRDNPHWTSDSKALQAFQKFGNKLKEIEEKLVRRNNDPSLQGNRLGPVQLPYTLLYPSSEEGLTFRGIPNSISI
Assay: Lipoxygenase inhibition test (spectrophotometric, 96-well)
Type: biochemical
Details: tested 50−1000 μg/mL, linoleic acid substrate, pH 9.0, mean ± SD (n = 3 × 2); read-out: LOX inhibitory activity (IC50) (converted)
Decision: IC50 beneath 1 mM gives fulfilled; IC50 meeting or exceeding 1 mM gives not fulfilled.

- compound: "COC(=O)c1ccccc1O [SM, methyl salicylate]"
  test.system: "lipoxygenase from soybean (Glycine max, UniProt P08170)"
  group.label: "not fulfilled"
- compound: "CC1=CC(=O)CC(C)(C)C1(O)C=CC(C)O [VO, (6S,9R)-6-hydroxy-3-oxo-α-ionol]"
  test.system: "lipoxygenase from soybean (Glycine max, UniProt P08170)"
  group.label: "fulfilled"
- compound: "CC[C@H](CC[C@@H](C)[C@H]1CC[C@H]2[C@@H]3CC=C4C[C@@H](O)CC[C@]4(C)[C@H]3CC[C@]12C)C(C)C [β-SIT, β-sitosterol]"
  test.system: "lipoxygenase from soybean (Glycine max, UniProt P08170)"
  group.label: "not fulfilled"
- compound: "COc1cc2oc(-c3ccc(O)cc3)c(OC)c(=O)c2c(O)c1C [DL]"
  test.system: "lipoxygenase from soybean (Glycine max, UniProt P08170)"
  group.label: "fulfilled"
- compound: "CCCCCCCCCCCCCCCCCCCCCC [DOC, docosane]"
  test.system: "lipoxygenase from soybean (Glycine max, UniProt P08170)"
  group.label: "not fulfilled"
- compound: "COc1cc2oc(-c3ccc(O)cc3)cc(=O)c2c(O)c1C [DS, 4′,5-dihydroxy-7-methoxy-6-methylflavone]"
  test.system: "lipoxygenase from soybean (Glycine max, UniProt P08170)"
  group.label: "not fulfilled"
- compound: "COc1ccc2c(c1)c(CC(=O)O)c(C)n2C(=O)c1ccc(Cl)cc1 [IND, indomethacin, reference compound]"
  test.system: "lipoxygenase from soybean (Glycine max, UniProt P08170)"
  group.label: "fulfilled"

----------
Target: bovine testis hyaluronidase (Bos taurus)
Construct: purchased Sigma-Aldrich; host or cells: bovine testis (tissue-derived preparation)
Sequence (Q2YDK3 36-553): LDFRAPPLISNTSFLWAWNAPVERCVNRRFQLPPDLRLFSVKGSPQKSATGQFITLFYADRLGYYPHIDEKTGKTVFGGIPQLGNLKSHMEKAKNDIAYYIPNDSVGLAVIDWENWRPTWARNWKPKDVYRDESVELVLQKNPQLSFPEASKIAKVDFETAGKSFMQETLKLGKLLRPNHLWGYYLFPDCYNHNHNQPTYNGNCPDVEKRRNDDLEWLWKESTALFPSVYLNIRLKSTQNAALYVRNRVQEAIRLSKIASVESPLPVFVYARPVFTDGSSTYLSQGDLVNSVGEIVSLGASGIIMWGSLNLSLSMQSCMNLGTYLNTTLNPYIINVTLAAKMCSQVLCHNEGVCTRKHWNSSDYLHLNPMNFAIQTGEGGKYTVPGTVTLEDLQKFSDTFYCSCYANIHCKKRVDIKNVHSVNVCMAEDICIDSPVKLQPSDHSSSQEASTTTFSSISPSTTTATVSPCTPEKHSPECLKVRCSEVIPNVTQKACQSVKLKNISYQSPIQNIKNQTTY
Assay: Hyaluronidase inhibition test (turbidimetric, 96-well)
Type: biochemical
Settings: tested 100−1000 μg/mL, hyaluronic acid substrate, 37 °C, mean ± SD (n = 3 × 2); read-out: HYAL inhibitory activity (IC50) (converted)
The label Y is reserved for IC50 strictly under 2000 µM; N covers values equal to or above it.

- molecule: "CC[C@H](CC[C@@H](C)[C@H]1CC[C@H]2[C@@H]3CC=C4C[C@@H](O)CC[C@]4(C)[C@H]3CC[C@]12C)C(C)C"
  group.label: "Y"
- molecule: "COc1cc2oc(-c3ccc(O)cc3)cc(=O)c2c(O)c1C [DS, 4′,5-dihydroxy-7-methoxy-6-methylflavone]"
  group.label: "Y"
- molecule: "CCCCCCCCCCCCCCCCCCCCCC"
  group.label: "N"
- molecule: "COC(=O)c1ccccc1O [SM, methyl salicylate]"
  group.label: "N"
- molecule: "C[C@H]1[C@H](C)CC[C@]2(C(=O)O)CC[C@]3(C)C(=CC[C@@H]4[C@@]5(C)CC[C@H](O)C(C)(C)[C@@H]5CC[C@]43C)[C@H]12"
  group.label: "Y"
- molecule: "CC1=CC(=O)CC(C)(C)C1(O)C=CC(C)O [VO, (6S,9R)-6-hydroxy-3-oxo-α-ionol]"
  group.label: "Y"
- molecule: "COC(=O)c1ccccc1 [BM, methyl benzoate]"
  group.label: "N"
- molecule: "COc1cc2oc(-c3ccc(O)cc3)c(OC)c(=O)c2c(O)c1C"
  group.label: "Y"
